Test system: NCI-H1355
Assay: relative viability (nuclei count vs DMSO), 5 days (fraction); higher = more cells survive
Conditions: first compound 1.265 µM
relative viability values for the molecules below.
Respond with the number and no other words.

# value lookup — system NCI-H1355, readout relative viability, item Clc1ccc(Nc2nnc(Cc3ccncc3)c3ccccc23)cc1 [Vatalanib] + Nc1ncn([C@H]2C[C@H](O)[C@@H](CO)O2)c(=O)n1 [Decitabine] (partner 2 µM)
0.33

Lookup COc1cc(N2CCC(C(N)=O)CC2)ccc1Nc1nc(N)c(Cl)c(Nc2ccccc2S(=O)(=O)C(C)C)n1 [HG-5-88-01] + O=C(CCCCCCC(=O)Nc1ccccc1)NO [Vorinostat] (partner 1 µM)
0.587

Same for COc1cc(N2CCC(C(N)=O)CC2)ccc1Nc1nc(N)c(Cl)c(Nc2ccccc2S(=O)(=O)C(C)C)n1 [HG-5-88-01] + C[C@]1(O)C[C@@H](c2nc(-c3ccc4ccc(-c5ccccc5)nc4c3)c3c(N)nccn32)C1 [Linsitinib] (partner 1 µM)
0.705
